- target: hCB1 (Homo sapiens, UniProt P21554)
- Sequence (P21554 whole entry): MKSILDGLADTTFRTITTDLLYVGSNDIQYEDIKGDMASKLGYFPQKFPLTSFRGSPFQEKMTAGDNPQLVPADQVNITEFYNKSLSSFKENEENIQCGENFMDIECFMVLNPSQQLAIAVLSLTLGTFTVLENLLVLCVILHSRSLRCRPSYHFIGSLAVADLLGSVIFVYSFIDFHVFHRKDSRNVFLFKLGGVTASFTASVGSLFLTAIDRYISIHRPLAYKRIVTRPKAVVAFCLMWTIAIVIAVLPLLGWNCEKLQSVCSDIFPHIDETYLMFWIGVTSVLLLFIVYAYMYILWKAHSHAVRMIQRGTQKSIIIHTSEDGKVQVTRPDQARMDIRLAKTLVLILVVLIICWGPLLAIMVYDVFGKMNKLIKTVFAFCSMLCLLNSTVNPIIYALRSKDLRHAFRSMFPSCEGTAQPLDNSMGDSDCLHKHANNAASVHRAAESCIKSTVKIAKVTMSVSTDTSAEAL
- method_description: bioSensAll ebBRET signaling profiling, hCB1
- Type: cell-based
- Parameters: host or cells: HEK293SL cells, transient PEI transfection
- experimental_parameters: Log [Compound] (M) -10.5529; single replicate values, FigS6a
// Gi1 hCB1 lookup, one value per entry
experimental_endpoint: Gi1 hCB1

1. Cc1cc(C(=O)N2CC3(CCC3)[C@H]2[C@@H]2CCCO2)nn1-c1cccc(C(F)(F)F)c1 [‘5490] :: 2.602
2. CC(=O)C(c1cccs1)N(C)C(=O)c1cc(C)n(-c2cccc(C(F)(F)F)c2)n1 (stereo not shown) [‘6829] :: 1.137
3. COC(=O)C(NC(=O)c1cc(C)n(-c2cccc(F)c2)n1)c1cccs1 (stereo not shown) [‘51486] :: 0.2124
4. Cc1cc(C(=O)N(C)C(c2ccco2)c2ccco2)nn1-c1cccc(C(F)(F)F)c1 [‘4388] :: 1.122

Data provenance is paper PMC11882969.
